Give pIC50 for every item shown.
Target: Phospholipase A and acyltransferase 5 (Homo sapiens)
Sequence (Q96KN8 whole entry): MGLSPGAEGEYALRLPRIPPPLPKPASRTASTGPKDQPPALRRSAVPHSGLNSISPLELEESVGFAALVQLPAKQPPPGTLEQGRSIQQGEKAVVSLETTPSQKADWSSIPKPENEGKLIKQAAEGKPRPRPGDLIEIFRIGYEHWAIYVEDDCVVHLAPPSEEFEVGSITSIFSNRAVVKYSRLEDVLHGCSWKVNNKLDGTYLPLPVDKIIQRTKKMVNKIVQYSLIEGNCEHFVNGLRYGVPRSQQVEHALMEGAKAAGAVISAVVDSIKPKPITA
Experiment: Inhibition of full-length C-terminal FLAG-tagged human PLAAT5 expressed in HEK293T cell lysate preincubated for 30 mins followed by MB064 addition and measured after 20 mins by SDS-PAGE based ABPP analysis
Answers are plain numbers, as −log10 of the molar value.

[
  {
    "Compound Structure String": "O=C(CCCc1ccccc1)C(=O)NCCc1ccc(Oc2ccnc(Cl)n2)cc1",
    "pIC50": 7.10
  },
  {
    "Compound Structure String": "O=C(CCCc1ccccc1)C(=O)NCCc1ccc(Oc2cnccn2)cc1",
    "pIC50": 7.20
  },
  {
    "Compound Structure String": "COc1ccc(CCNC(=O)C(=O)CCCc2ccccc2)cc1",
    "pIC50": 7.10
  },
  {
    "Compound Structure String": "O=C(/C=C/c1cccc(-c2ccccc2)c1)C(=O)NCCc1ccccc1",
    "pIC50": 6.00
  },
  {
    "Compound Structure String": "O=C(CCCCc1ccccc1)C(=O)NCCc1ccccc1",
    "pIC50": 6.80
  },
  {
    "Compound Structure String": "Cc1ccc(CCNC(=O)C(=O)CCCc2ccccc2)cc1",
    "pIC50": 7.40
  },
  {
    "Compound Structure String": "O=C(CCCc1ccccc1)C(=O)NCCc1ccccc1",
    "pIC50": 7.00
  },
  {
    "Compound Structure String": "O=C(/C=C/c1ccccc1)C(=O)NCCc1ccccc1",
    "pIC50": 5.20
  }
]

I need pIC50 for every entry listed below, if you could help.
1. O=C(CCCc1ccccc1)C(=O)NCCc1ccc(O)cc1
2. O=C(CCCc1ccccc1)C(=O)NCCc1ccccc1Cl
3. O=C(CCc1ccc(C(F)(F)F)cc1)C(=O)NCCc1ccccc1
4. COc1ccc(CCNC(=O)C(=O)CCCc2ccccc2)cc1OC
5. O=C(/C=C/c1cccc(Br)c1)C(=O)NCCc1ccccc1

[6.80, 6.10, 6.50, 6.50, 5.50]

Each compound below has a recorded value; state its pIC50.
1. O=C(CCc1ccc(Cl)c(Cl)c1)C(=O)NCCc1ccccc1
2. O=C(/C=C/c1ccc(Cl)cc1)C(=O)NCCc1ccccc1

7.00
6.20
